Just for reference, ChEMBL document CHEMBL3085659 is where these values come from.

system: A549; experiment: Antiproliferative activity against human A549 cells assessed as growth inhibition at 10 uM after 48 hrs by SRB assay; format: functional; conditions: A549, 48 h, read-out: GI
endpoint: inhibition of growth at 10 µM (%)

| structure_smiles | target | units_of_measure | measured_result |
| --- | --- | --- | --- |
| Clc1ccc(Nc2nc3c(N4CCOCC4)ncnc3s2)cc1 | A549 | % | 24 |
| c1ccc(Nc2nc3c(N4CCCCC4)ncnc3s2)cc1 | A549 | % | 54 |
| c1ccc(Nc2nc3c(N4CCOCC4)ncnc3s2)cc1 | A549 | % | 38 |
| c1ccc(Nc2nc3c(N4CCNCC4)ncnc3s2)cc1 | A549 | % | 19 |
| CN(C)c1ncnc2sc(Nc3ccc(Cl)cc3)nc12 | A549 | % | 23 |
| CCN1CCN(c2ncnc3sc(Nc4ccccc4)nc23)CC1 | A549 | % | 25 |

====

test system: HL-60; experiment: Antiproliferative activity against human HL60 cells assessed as growth inhibition at 10 uM after 48 hrs by SRB assay; assay type: functional; conditions: HL-60, 48 h, read-out: GI
endpoint: inhibition of growth at 10 µM (%)

| structure_smiles | target | endpoint | units_of_measure | measured_result |
| --- | --- | --- | --- | --- |
| CCN(CC)c1ncnc2sc(Nc3ccccc3)nc12 | HL-60 | inhibition of growth at 10 µM | % | 31 |
| Clc1ccc(Nc2nc3c(Cl)ncnc3s2)cc1 | HL-60 | inhibition of growth at 10 µM | % | 18 |
| CN(C)c1ncnc2sc(Nc3ccccc3)nc12 | HL-60 | inhibition of growth at 10 µM | % | 28 |
| COc1ccc(Nc2nc3c(Cl)ncnc3s2)cc1 | HL-60 | inhibition of growth at 10 µM | % | 31 |
| O=C(Nc1nc2c(Cl)ncnc2s1)c1ccccc1 | HL-60 | inhibition of growth at 10 µM | % | 21 |
| CN(C)c1ncnc2sc(Nc3ccc(Cl)cc3)nc12 | HL-60 | inhibition of growth at 10 µM | % | 39 |
| c1ccc(Nc2nc3c(N4CCOCC4)ncnc3s2)cc1 | HL-60 | inhibition of growth at 10 µM | % | 59 |
| CN1CCN(c2ncnc3sc(Nc4ccc(Cl)cc4)nc23)CC1 | HL-60 | inhibition of growth at 10 µM | % | 20 |
| CCN(CC)c1ncnc2sc(Nc3ccc(Cl)cc3)nc12 | HL-60 | inhibition of growth at 10 µM | % | 22 |
| Clc1ncnc2sc(Nc3ccccc3)nc12 | HL-60 | inhibition of growth at 10 µM | % | 21 |
| c1ccc(Nc2nc3c(N4CCC(N5CCCCC5)CC4)ncnc3s2)cc1 | HL-60 | inhibition of growth at 10 µM | % | 39 |
| Clc1ccc(Nc2nc3c(N4CCCCC4)ncnc3s2)cc1 | HL-60 | inhibition of growth at 10 µM | % | 21 |
| CCN1CCN(c2ncnc3sc(Nc4ccccc4)nc23)CC1 | HL-60 | inhibition of growth at 10 µM | % | 24 |
| Clc1ccc(Nc2nc3c(N4CCCC4)ncnc3s2)cc1 | HL-60 | inhibition of growth at 10 µM | % | 41 |
| c1ccc(Nc2nc3c(N4CCNCC4)ncnc3s2)cc1 | HL-60 | inhibition of growth at 10 µM | % | 39 |
| c1ccc(Nc2nc3c(N4CCCCC4)ncnc3s2)cc1 | HL-60 | inhibition of growth at 10 µM | % | 22 |
| Clc1ccc(Nc2nc3c(N4CCOCC4)ncnc3s2)cc1 | HL-60 | inhibition of growth at 10 µM | % | 33 |
| CN1CCN(c2ncnc3sc(Nc4ccccc4)nc23)CC1 | HL-60 | inhibition of growth at 10 µM | % | 12 |

====

assay: Antiproliferative activity against human NCI-H322 cells assessed as growth inhibition at 10 uM after 48 hrs by SRB assay; format: functional; conditions: NCI-H322, 48 h, read-out: GI
Returns one of Fulfilled or Not fulfilled; Fulfilled when inhibition of growth at 10 µM is >= 30%.

| structure_smiles | category |
| --- | --- |
| Clc1ccc(Nc2nc3c(N4CCOCC4)ncnc3s2)cc1 | Fulfilled |
| Clc1ncnc2sc(Nc3ccccc3)nc12 | Not fulfilled |
| CN1CCN(c2ncnc3sc(Nc4ccc(Cl)cc4)nc23)CC1 | Not fulfilled |
| CCN1CCN(c2ncnc3sc(Nc4ccccc4)nc23)CC1 | Not fulfilled |
| c1ccc(Nc2nc3c(N4CCNCC4)ncnc3s2)cc1 | Fulfilled |
| Clc1ccc(Nc2nc3c(N4CCCC4)ncnc3s2)cc1 | Not fulfilled |
| CCN(CC)c1ncnc2sc(Nc3ccccc3)nc12 | Fulfilled |
| CCN(CC)c1ncnc2sc(Nc3ccc(Cl)cc3)nc12 | Fulfilled |
| Clc1ccc(Nc2nc3c(N4CCCCC4)ncnc3s2)cc1 | Fulfilled |
| Clc1ccc(Nc2nc3c(Cl)ncnc3s2)cc1 | Fulfilled |
| CN1CCN(c2ncnc3sc(Nc4ccccc4)nc23)CC1 | Fulfilled |
| COc1ccc(Nc2nc3c(Cl)ncnc3s2)cc1 | Not fulfilled |
| CN(C)c1ncnc2sc(Nc3ccccc3)nc12 | Not fulfilled |
| O=C(Nc1nc2c(Cl)ncnc2s1)c1ccccc1 | Fulfilled |
| c1ccc(Nc2nc3c(N4CCCCC4)ncnc3s2)cc1 | Fulfilled |
| CN(C)c1ncnc2sc(Nc3ccc(Cl)cc3)nc12 | Not fulfilled |
| c1ccc(Nc2nc3c(N4CCOCC4)ncnc3s2)cc1 | Not fulfilled |
